Recorded values, source ChEMBL document CHEMBL3826892.

protocol text: Ratio of non toxic dose for cytotoxicity against human HaCaT cells to MIC for methicillin-resistant Staphylococcus aureus RCMB 2658 clinical isolate
Assay type: toxicity, cell-based
readout kind: selectivity ratio
Give bare numbers.

Query block: What measured selectivity ratio goes with "CCCCc1ccc(-c2nc(C)c(-c3ccnc(NN)n3)s2)cc1" ?
Result block: 160

====

protocol text: Total AUC in Sprague-Dawley rat plasma at 50 mg/kg administered via oral gavage measured 24 hrs post dose by LC/MS/MS analysis
Assay type: ADME, organism-based
Set-up: dose 50 mg/kg, route oral, time AUCmax
readout kind: AUC at 24 h (µg·h/mL)
Give bare numbers, in µg·h/mL.

Query block: Look up AUC at 24 h for this compound: "CCCCc1ccc(-c2nc(C)c(-c3ccnc(NN)n3)s2)cc1"
Result block: 100

====

protocol text: AUClast in Sprague-Dawley rat plasma at 50 mg/kg administered via oral gavage measured 24 hrs post dose by LC/MS/MS analysis
Assay type: ADME, organism-based
Parameters: dose 50 mg/kg, time 0 - last, route oral
readout kind: AUC(0-t) at 24 h (ng·h/mL)
Answers are plain numbers, in ng·h/mL.

Query block: Quick one: AUC(0-t) at 24 h for "CCCCc1ccc(-c2nc(C)c(-c3ccnc(NN)n3)s2)cc1" ?
Result block: 83200

====

protocol text: Aqueous solubility of the compound in PBS after 2 hrs by turbidity assay
Type: physicochemical
Assignment: determine reported solubility kinetic at 2 h for the given compounds.
One number for each entry, in µM.

Recorded solubility kinetic at 2 h, per entry:
> print(dat)
                         chemical.structure               readout.kind  value.reported
1  Cc1nc(-c2ccc(C3=CCCCC3)cc2)sc1-c1ccnc(N)n1  solubility kinetic at 2 h              37
2  Cc1nc(-c2ccc(-c3ccsc3)cc2)sc1-c1ccnc(N)n1  solubility kinetic at 2 h             8.5
3  CCCCc1ccc(-c2nc(C)c(-c3ccnc(NC(=N)N(C)C)n3)s2)cc1  solubility kinetic at 2 h              53
4  CCCCc1ccc(-c2nc(C)c(-c3ccnc(NN)n3)s2)cc1  solubility kinetic at 2 h              55
5  Cc1nc(-c2ccc(C3=CCCC3)cc2)sc1-c1ccnc(N)n1  solubility kinetic at 2 h              35

Batch: solubility kinetic at 2 h for all items listed.
1. Cc1nc(-c2ccc(-c3ccoc3)cc2)sc1-c1ccnc(N)n1
2. Cc1nc(-c2ccc(-c3ccco3)cc2)sc1-c1ccnc(N)n1

Result block:
[13, 14]

Query block: Give the measured solubility kinetic at 2 h of "CCCCc1ccc(-c2nc(C)c(-c3ccnc(N)n3)s2)cc1" .
Result block: 42

====

protocol text: Efflux ratio of apparent permeability from basolateral to apical side over apical to basolateral side in human Caco2 cells after 2 hrs by LC/MS/MS analysis
Assay type: ADME, cell-based
run parameters: Caco-2
readout kind: efflux ratio at 2 h
Answers are plain numbers.

> print(dat)
                         chemical.structure         readout.kind  value.reported
1  CCCCc1ccc(-c2nc(C)c(-c3ccnc(NN)n3)s2)cc1  efflux ratio at 2 h             1.8

Now consider a different compound.
Query block: Data request, read-out efflux ratio at 2 h, for "CCCCc1ccc(-c2nc(C)c(-c3ccnc(N)n3)s2)cc1"
Result block: 1.1

====

protocol text: Tmax in Sprague-Dawley rat plasma at 50 mg/kg administered via oral gavage measured 24 hrs post dose by LC/MS/MS analysis
Assay type: ADME, organism-based
readout kind: Tmax (h)
Answers are plain numbers, in h.

Query block: # get_value(readout='Tmax', item= "CCCCc1ccc(-c2nc(C)c(-c3ccnc(NN)n3)s2)cc1" )
Result block: 4.67
